Consider the following molecules; for each one, report its solubility.
- test description: Aqueous solubility at pH 1.0
- Type: physicochemical

C#CCOc1ccc2c(c1)c(-c1ccc(C(C)C)cc1)nc(=O)n2Cc1cccc(NC(=O)CN2CCN(C)CC2)c1 :: > 0.2 mg/mL
C#CCOc1ccc2c(c1)c(-c1ccc(C(C)C)cc1)nc(=O)n2Cc1cccc(NC(=O)CN2CCN(CCCN(C)C)CC2)c1 :: > 0.2 mg/mL
C#CCOc1ccc2c(c1)c(-c1ccc(C(C)C)cc1)nc(=O)n2C(C)C :: 0.02 mg/mL

Q: Could you tell me which solubility is on file for C#CCOc1ccc2c(c1)c(-c1ccc(C(C)C)cc1)nc(=O)n2Cc1cccc(NC(=O)CN2CCN(CCOC)CC2)c1 ?
Result: > 0.2 mg/mL

* * *

- test target: Extracellular calcium-sensing receptor (Homo sapiens, UniProt P41180)
- test description: Antagonist activity at human CaSR expressed in CCL39 cells assessed as inhibition of extracellular calcium-induced intracellular calcium transient by FLIPR assay
quantity kind: pIC50
One number for each entry, as −log10 of the molar value.

// known answers, use as guide
C#CCOc1ccc2c(c1)c(-c1ccc(C(C)C)cc1)nc(=O)n2Cc1cccc(NC(=O)CN2CCN(C)CC2)c1 :: 8.62
C#CCOc1ccc2c(c1)c(-c1ccc(C(C)C)cc1)nc(=O)n2Cc1cccc(NC(=O)CN2CCN(CCOC)CC2)c1 :: 7.89
COc1ccc2c(c1)c(-c1ccc(C(C)C)cc1)nc(=O)n2C(C)C :: 5.85
C#CCOc1ccc2c(c1)c(-c1ccc(C(C)C)cc1)nc(=O)n2Cc1cccc(OC)c1 :: 8.57
C#CCN(CC#C)c1ccc2c(c1)c(-c1ccc(C(C)C)cc1)nc(=O)n2C(C)C :: 6.92
CC(C)c1ccc(-c2nc(=O)n(C(C)C)c3ccc(NCc4ccccc4)cc23)cc1 :: 5.00

Let us examine a further case.
Q: # pIC50 lookup, item C#CCOc1ccc2c(c1)c(-c1ccc(C(C)C)cc1)nc(=O)n2Cc1cccc(OCC(=O)O)c1
Result: 8.47

* * *

- test target: Extracellular calcium-sensing receptor (Homo sapiens)
- test description: Antagonist activity at human CaSR expressed in CCL39 cells assessed as inhibition of extracellular calcium-induced intracellular calcium transient by FLIPR assay
quantity kind: IC50 (nM)
Numbers only, in nM.

COc1ccc2c(c1)c(-c1ccc(C3CC3)cc1)nc(=O)n2C(C)C :: 3300

State the recorded IC50 for every item in the following list.
1. C#CCOc1ccc2c(c1)c(-c1ccc(C(C)C)cc1)nc(=S)n2Cc1cccc(OCCO)c1
2. CCNc1ccc2c(c1)c(-c1ccc(C(C)C)cc1)nc(=O)n2C(C)C
3. C#CCOc1ccc2c(c1)c(-c1ccc(C(C)C)cc1)nc(=O)n2Cc1ccc(C(C)C)cc1

Result:
1. 0.4
2. 460
3. 27

* * *

- test target: Extracellular calcium-sensing receptor (Homo sapiens, UniProt P41180)
- Sequence (P41180 whole entry): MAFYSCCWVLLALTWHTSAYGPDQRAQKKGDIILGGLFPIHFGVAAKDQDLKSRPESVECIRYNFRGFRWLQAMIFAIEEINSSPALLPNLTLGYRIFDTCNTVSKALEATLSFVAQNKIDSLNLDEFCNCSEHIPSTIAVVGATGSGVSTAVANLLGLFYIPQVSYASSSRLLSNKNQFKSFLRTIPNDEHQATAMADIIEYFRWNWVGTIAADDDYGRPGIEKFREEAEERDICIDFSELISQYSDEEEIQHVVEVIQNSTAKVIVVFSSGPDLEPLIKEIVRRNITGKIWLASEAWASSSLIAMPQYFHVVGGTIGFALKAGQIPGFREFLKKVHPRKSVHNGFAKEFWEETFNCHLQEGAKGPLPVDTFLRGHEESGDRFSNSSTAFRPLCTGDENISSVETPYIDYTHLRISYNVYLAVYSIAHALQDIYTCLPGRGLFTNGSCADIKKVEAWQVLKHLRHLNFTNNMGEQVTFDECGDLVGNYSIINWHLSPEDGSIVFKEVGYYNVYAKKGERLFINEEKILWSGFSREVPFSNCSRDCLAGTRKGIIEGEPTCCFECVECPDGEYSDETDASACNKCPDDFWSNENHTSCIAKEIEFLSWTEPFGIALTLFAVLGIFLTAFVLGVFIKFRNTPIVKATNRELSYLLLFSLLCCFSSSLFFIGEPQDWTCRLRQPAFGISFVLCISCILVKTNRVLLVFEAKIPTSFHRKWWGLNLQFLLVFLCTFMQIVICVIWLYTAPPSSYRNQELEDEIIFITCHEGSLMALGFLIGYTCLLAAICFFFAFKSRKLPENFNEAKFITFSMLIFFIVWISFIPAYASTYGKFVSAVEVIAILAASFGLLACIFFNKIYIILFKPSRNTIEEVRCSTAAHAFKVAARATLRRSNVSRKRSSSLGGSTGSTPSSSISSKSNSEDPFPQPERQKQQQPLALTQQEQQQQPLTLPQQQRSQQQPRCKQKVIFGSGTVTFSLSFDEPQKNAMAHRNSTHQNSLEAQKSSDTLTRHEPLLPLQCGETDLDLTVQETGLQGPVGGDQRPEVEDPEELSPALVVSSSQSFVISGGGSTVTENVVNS
- test description: Antagonist activity at human CaSR expressed in CCL39 cells assessed as inhibition of extracellular calcium-induced intracellular calcium transient by FLIPR assay
Please respond with reported pIC50 for every item in the list.
Answers are plain numbers, as −log10 of the molar value.

C#CCOc1ccc2c(c1)c(-c1ccc(C(C)C)cc1)nc(=O)n2Cc1ccc(OCC(=O)O)cc1 :: 7.90
C#CCOc1ccc2c(c1)c(-c1ccc(C(C)C)cc1)nc(=O)n2Cc1ccc(OC)c(OCC)c1 :: 8.85
C#CCNc1ccc2c(c1)c(-c1ccc(C(C)C)cc1)nc(=O)n2C(C)C :: 7.52

Hi, could you look up pIC50 for each item in my list?
1. C#CCOc1ccc2c(c1)c(-c1ccc(C(C)C)cc1)nc(=O)n2Cc1ccc(CC)cc1
2. CCOc1ccc2c(c1)c(-c1ccc(C(C)C)cc1)nc(=O)n2C(C)C
3. C=CCOc1ccc2c(c1)c(-c1ccc(C(C)C)cc1)nc(=O)n2C(C)C
4. CCCc1c(O)ccc2c1c(-c1ccc(C(C)C)cc1)nc(=O)n2Cc1ccccc1
5. C#CCOc1ccc2c(c1)c(-c1ccc(C(C)C)cc1)nc(=O)n2Cc1cccc(NC(=O)CN2CCN(CCCN(C)C)CC2)c1
6. COc1ccc2c(c1)c(-c1ccc(C(C)(C)C)cc1)nc(=O)n2C(C)C
7. CCCOc1ccc2c(c1)c(-c1ccc(C(C)C)cc1)nc(=O)n2C(C)C
8. C#CCOc1ccc2c(c1)c(-c1ccc(C(C)C)cc1)nc(=O)n2Cc1cccc(CC)c1

Result:
1: 8.38; 2: 5.66; 3: 6.74; 4: 8.18; 5: 8.09; 6: 5.68; 7: 5.96; 8: 7.89

Would you mind giving pIC50 for every compound in the list below?
1. C#CCOc1ccc2c(c1)c(-c1ccc(C(C)C)cc1)nc(=O)n2Cc1ccc(C)cc1
2. CCc1ccc(-c2nc(=O)n(C(C)C)c3ccc(OC)cc23)cc1
3. CCCNc1ccc2c(c1)c(-c1ccc(C(C)C)cc1)nc(=O)n2C(C)C
4. C#CCOc1ccc2c(c1)c(-c1ccc(C(C)C)cc1)nc(=O)n2Cc1ccc(OC)cc1
5. CCN(CC)c1ccc2c(c1)c(-c1ccc(C(C)C)cc1)nc(=O)n2C(C)C

Result:
1: 8.80; 2: 5.68; 3: 5.96; 4: 8.38; 5: 6.28

Give measured pIC50 for every item shown.
1. CCCCOc1ccc2c(c1)c(-c1ccc(C(C)C)cc1)nc(=O)n2C(C)C
2. C#CCOc1ccc2c(c1)c(-c1ccc(C(C)C)cc1)nc(=O)n2Cc1cccc(C)c1

Result:
1: 5.43; 2: 8.74
